Origin of measurements: PubChem BioAssay AID463173

Tested on: Wild type
assayComment: S. aureus survival, RN4220 and DeltatarO strains – OD600, teichoic acid synthesis inhibitors, primary screen (AID 463173)
conditionSummary: S. aureus RN4220 wild type/DeltatarO growth, OD600, 18 h, hits give low values, screened at 18.75 µg/mL (by protocol)
Screen size: about 52,000 compounds; about 1,700 (3.3%) were called active. This is one part of a sample in which actives are shown more often than they occur.
Each record is given yes (1) if its reported survival is strictly below 60%. Records at or above 60% are given no (0).

Task: Hi there! Is survival for CC1CCN(c2nc(-c3ccc(Br)cc3)nc3ccccc23)CC1 below 60%, do you know?
Result: no (0)

Task: Take the molecule CCCCOc1ccc(CNC(=O)c2cc3n(n2)CCCN(Cc2ccc(C)cc2)C3=O)cc1 and say whether its survival is less than 60%.
Result: no (0)

Task: # check: survival < 60% for Cc1ccccc1C(=O)NCC(c1ccc(N(C)C)cc1)N1CCCC1 (configuration not stated)
Result: no (0)

Task: Is it true that survival reported for CN1c2ccccc2Oc2nnc(N3CCN(Cc4ccccc4)CC3)cc21 is less than 60%?
Result: no (0)

Task: Is survival strictly under 60% for the entry CCn1nc(C)c2c(-c3ccccc3)cc(=O)n(C(C)C(=O)NCc3ccc(C)cc3)c21 (configuration not stated) ?
Result: no (0)

Task: Could you please tell me whether survival recorded for CCOC(=O)c1sc2ncn(CC(=O)Nc3ccc(OC)c(Cl)c3)c(=O)c2c1C is less than 60%?
Result: no (0)

Task: I wonder whether CCOC(=O)c1cc(=O)n2[nH]c(-c3ccc(C)cc3)cc2n1 has survival below 60%. Can you tell?
Result: no (0)

Task: Consider the molecule O=C(COc1ccccc1Cl)OCc1cc(=O)n2nc(C3CCCCC3)sc2n1 . Is its survival strictly less than 60%?
Result: no (0)

Task: Quick check: does CCc1ccc(S(=O)(=O)Nc2cc3c(cc2N2CCOCC2)n(C)c(=O)c(=O)n3C)cc1 have survival under 60%?
Result: yes (1)

Task: Would you kindly verify if survival of Cc1noc2nc(C(=O)O)nc(N3CCCCC3)c12 is strictly less than 60%?
Result: no (0)

Task: Dear reviewer, please state whether CC(C)(C)Sc1ccc(SC#N)s1 has survival strictly beneath 60%.
Result: yes (1)

Task: is_below(survival, 60%) for Cn1c(=O)c(=O)n(C)c2cc(N3CCOCC3)c(NS(=O)(=O)c3ccc(F)c(Cl)c3)cc21 ?
Result: no (0)

Task: # TODO verify survival < 60% strictly for this molecule: Cc1ccc(S(=O)(=O)Nc2cc3c(cc2N2CCOCC2)n(C)c(=O)n3C)cc1
Result: no (0)

Task: I'd appreciate it if you could check whether CCOc1cc(C(=O)NCCc2csc3nc(-c4ccccc4F)nn23)cc(OCC)c1OCC has survival smaller than 60%.
Result: no (0)

Task: Could you please tell me whether survival recorded for CC(C)Cc1ccc(S(=O)(=O)Nc2cc3c(cc2N2CCOCC2)n(C)c(=O)c(=O)n3C)cc1 is less than 60%?
Result: no (0)

Task: Please determine if Cc1ccc(S(=O)(=O)Nc2cc3c(cc2C)n(C)c(=O)c(=O)n3C)cc1 is below 60% in terms of survival.
Result: yes (1)

Task: Quick check: survival of CCOc1ccc(NC(=O)CSc2nnc3scc(-c4ccccc4)n23)cc1 under 60%?
Result: yes (1)

Task: Quick check: does CCOC(=O)c1nc(N2CCN(c3ccc(F)cc3)CC2)c2c(C)noc2n1 have survival under 60%?
Result: yes (1)

Task: Please determine if Cn1c(=O)n(C)c2cc(N3CCOCC3)c(NS(=O)(=O)c3ccc(Cl)cc3)cc21 is below 60% in terms of survival.
Result: no (0)

Task: # strict comparison: is reported survival < 60%? input = N#CSc1ccc2nc(N)sc2c1
Result: no (0)

Task: # check: survival < 60% for Cc1ccc(Nc2c(-c3ccccc3O)nc3ccc(Br)cn23)cc1
Result: no (0)

Task: Just wondering, is survival of Cc1cc[n+](CC(=O)N2CCCCC2)cc1 below 60%?
Result: no (0)
